Each recorded value in this set is attributed to PubChem BioAssay AID778.

target: Cytochrome P450 2C19 (Homo sapiens) (UniProt P33261); test: blockers of cytochrome P450 2C19 activity – biochemical, luminescence, ADME assay, primary screen (AID 778); conditions: CYP2C19 Supersomes, luciferin-H EGE luminescence, 30 min; at 5 µM; hits give high values;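 also: plate controls were negative control wells for no effect and 2.5 mM tranylcypromine positive control for full effect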
Sequence (P33261 whole entry, looked up): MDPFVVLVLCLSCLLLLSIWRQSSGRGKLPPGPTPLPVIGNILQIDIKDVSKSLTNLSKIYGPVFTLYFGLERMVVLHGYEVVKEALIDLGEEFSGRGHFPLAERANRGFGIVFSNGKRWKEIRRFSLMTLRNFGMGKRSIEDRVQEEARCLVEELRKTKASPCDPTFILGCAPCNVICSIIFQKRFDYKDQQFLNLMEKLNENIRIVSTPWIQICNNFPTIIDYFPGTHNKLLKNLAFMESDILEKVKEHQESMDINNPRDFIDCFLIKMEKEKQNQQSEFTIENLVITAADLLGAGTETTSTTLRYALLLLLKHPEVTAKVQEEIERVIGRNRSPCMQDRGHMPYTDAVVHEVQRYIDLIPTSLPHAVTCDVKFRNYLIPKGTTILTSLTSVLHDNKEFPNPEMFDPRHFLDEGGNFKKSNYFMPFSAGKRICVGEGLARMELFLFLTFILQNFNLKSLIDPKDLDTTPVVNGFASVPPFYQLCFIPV
The campaign covered roughly 96,000 compounds. About 20,000 (21%) were called active. Only a sample is shown.
inhibition listing for selected compounds.

- compound: "Cc1nc2ccccc2c2oc(C(=O)NCCCN3CCC(C)CC3)cc12"
  inhibition [%]: -6.7
- compound: "CCc1c(C)sc(NC(=O)OC)c1C(=O)N1CCOCC1"
  inhibition [%]: -0.7
- compound: "COC(=O)C(C(=O)Nc1cccc(C)n1)C1CCCCCC1 (stereo unspecified)"
  inhibition [%]: 80.7
- compound: "O=C(Cc1ccc(-n2c(=O)[nH]c3ccccc3c2=O)cc1)N1CCN(c2cccc(Cl)c2)CC1"
  inhibition [%]: 40.3
- compound: "Cc1cccc(NC(=O)COc2ccccc2C)n1"
  inhibition [%]: 32
- compound: "CCCc1nc2ccccc2c(C(=O)OCC(=O)c2ccc3c(c2)NC(=O)CO3)c1CC"
  inhibition [%]: -9.7

###

target: Cytochrome P450 2C19 (Homo sapiens) (UniProt P33261); experiment: blockers of cytochrome P450 2C19 activity – biochemical, luminescence, ADME assay, primary screen (AID 778); settings: CYP2C19 Supersomes, luciferin-H EGE luminescence, 30 min; at 5 µM;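 also: plate controls were negative control wells for no effect and 2.5 mM tranylcypromine positive control for full effect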
The whole screen tested about 96,000 compounds, of which about 20,000 (21%) were called active.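 The calls were made as follows: active = CYP2C19 inhibition above a set limit at 5 µM in the primary screen (cut at about 50% in these data); inactive = the rest.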 Not all results are given here.
Outcome codes: True (active), False (inactive)

- compound: "CCOC(=O)c1[nH]c2ccc(C)cc2c1N=C(C)N(C)C"
  assigned-class: "False"
- compound: "CCOC(=O)c1oc2ccccc2c1NC(=O)c1cccs1"
  assigned-class: "False"
- compound: "Cn1c(=O)cc(OCCCC(=O)N2CCN(c3ccccn3)CC2)c2ccccc21"
  assigned-class: "False"
- compound: "CCOC(=O)CSc1nnc(CNc2ccc(F)cc2)o1"
  assigned-class: "True"
- compound: "FC(F)(F)c1nnc2sc(-c3ccco3)nn12"
  assigned-class: "False"
- compound: "O=C(Nc1ccc(Cl)cn1)c1cnn2cccnc12"
  assigned-class: "False"
- compound: "O=C(c1cc2c(s1)CCC2)N1CCN(c2ccccc2)CC1"
  assigned-class: "False"
- compound: "N#C/C=C\\Oc1ccc(Cl)cc1N"
  assigned-class: "False"
- compound: "CCC(=O)Nc1ccc(C(=O)CSc2nnc(CNc3ccc(Cl)cc3)o2)cc1OC"
  assigned-class: "False"
- compound: "COc1cc(C(=O)Nc2nccs2)cc(OC)c1OC"
  assigned-class: "False"
- compound: "Cc1ccccc1NC(=O)Cc1nnc(SCC(=O)N2CCN(c3ccccc3)CC2)n1C"
  assigned-class: "False"
- compound: "CCOc1ccc2nc(SC(CC)C(=O)Nc3cc(C)on3)sc2c1 (stereo not drawn)"
  assigned-class: "False"
- compound: "O=C(CN1CCN(C(=O)c2ccco2)CC1)Nc1ccc(Cl)c(C(F)(F)F)c1"
  assigned-class: "False"
- compound: "Nc1nc(C23CC4CC(CC(C4)C2)C3)cs1"
  assigned-class: "False"
- compound: "CCCn1nnnc1NC(=O)COc1ccc(Cl)cc1C"
  assigned-class: "True"
- compound: "CC1(C)Cc2cccc(OCC(=O)Nc3nccs3)c2O1"
  assigned-class: "True"
- compound: "O=C(c1cccs1)N1CCCC(c2nc(-c3ccc(F)cc3)no2)C1 (stereo not drawn)"
  assigned-class: "True"
- compound: "CCOC(=O)c1c(C)[nH]c(C)c1C(=O)CSc1nc(N)cc(N)n1"
  assigned-class: "False"
- compound: "O=CN1CCN(C2CC(=O)N(c3ccc4c(c3)OCO4)C2=O)CC1 (stereo not drawn)"
  assigned-class: "False"
- compound: "COc1cc(/C=N/Nc2nn3cnnc3c3ccccc23)cc(OC)c1OC"
  assigned-class: "False"
- compound: "Cc1cccc(-n2c(N)cc(=O)nc2SC(C)C(=O)NC2CCCCC2)c1 (stereo not drawn)"
  assigned-class: "False"
- compound: "CCOC(=O)c1nc(C)n(-c2ccc(Cl)cc2Cl)n1"
  assigned-class: "False"
- compound: "O=C(O)Cc1ccc(NC(=O)c2cccs2)cc1"
  assigned-class: "False"
- compound: "Cc1ccc(C2CC(c3cccc(Br)c3)n3nc(N)nc3N2)cc1 (stereo not drawn)"
  assigned-class: "False"
- compound: "O=C(NCc1ccco1)c1nc2ncccn2n1"
  assigned-class: "False"
- compound: "CCOC(=O)CSc1nnc(-c2cccc(Br)c2)o1"
  assigned-class: "False"
- compound: "Cc1cc(C(=O)N2CCN(c3ccccn3)CC2)c(C)o1"
  assigned-class: "True"
- compound: "CCCCN1C(=O)CC(N2CCOCC2)C1=O (stereo not drawn)"
  assigned-class: "False"
- compound: "O=C(Nc1ccc(S(=O)(=O)N2CCCC2)cc1Cl)C1=COCCO1"
  assigned-class: "False"
- compound: "CCOCCCN1C(=O)CN(C2CCCCC2)C(=O)C1c1ccc(OCC)c(OC)c1 (stereo not drawn)"
  assigned-class: "False"
- compound: "CN1C2CCC1/C(=C\\c1ccccc1Cl)C(=O)/C2=C\\c1ccccc1Cl"
  assigned-class: "False"
- compound: "O=C1c2ccccc2C(=O)c2c1cccc2N1CCN(CCO)CC1"
  assigned-class: "False"
- compound: "Cc1cc(=O)oc(C)c1C(=O)Nc1cnc2ccccc2c1"
  assigned-class: "False"
- compound: "O=C(CCC(=O)N1CCN(S(=O)(=O)c2ccccc2)CC1)NC1CCCc2ccccc21 (stereo not drawn)"
  assigned-class: "False"
- compound: "CC(C)c1ccc(-c2nn[nH]n2)cc1"
  assigned-class: "False"
- compound: "CNC(=O)c1nnc(Cc2ccc(Cl)cc2)o1"
  assigned-class: "False"
- compound: "O=C(NCc1ccccn1)c1ccc2nc(-c3ccco3)c(-c3ccco3)nc2c1"
  assigned-class: "False"
- compound: "Cc1ccc(N2CCN(/N=C/c3cccs3)CC2)cc1"
  assigned-class: "False"
- compound: "C=C(C)CSc1nnc(-c2ccc(C)cc2)n1N"
  assigned-class: "False"
- compound: "O=C(O)CCN1C(=O)CC2(CCCCC2)C1=O"
  assigned-class: "False"
- compound: "O=C(O)CSCC(=O)Nc1cccc(C(F)(F)F)c1"
  assigned-class: "False"
- compound: "O=C(CSc1nc(-c2ccco2)cc(C(F)(F)F)n1)NCc1cccs1"
  assigned-class: "False"
- compound: "CS(=O)(=O)N1CCN(C(=O)Cc2ccccc2)CC1"
  assigned-class: "False"
- compound: "O=C(CN1CCN(c2ccc(F)cc2)CC1)Nc1cccc(C(F)(F)F)c1"
  assigned-class: "True"
- compound: "CCOC(=O)C(CC)Sc1ncnc2c1nnn2-c1ccc(F)cc1 (stereo not drawn)"
  assigned-class: "False"
- compound: "Cc1ccc(O)c(NC(=O)COc2cc(C)ccc2C)c1"
  assigned-class: "False"
- compound: "C=CCSc1nc2c(c(=O)[nH]1)C(C(C)C)C(C#N)=C(N)O2 (stereo not drawn)"
  assigned-class: "False"
- compound: "O=S(=O)(c1ccc(Br)cc1)c1nc(-c2ccccc2)oc1NCc1cccnc1"
  assigned-class: "False"

###

biological target: Cytochrome P450 2C19 (Homo sapiens) (UniProt P33261); assay: blockers of cytochrome P450 2C19 activity – biochemical, luminescence, ADME assay, primary screen (AID 778); conditions: CYP2C19 Supersomes, luciferin-H EGE luminescence, 30 min; at 5 µM;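 also: plate controls were negative control wells for no effect and 2.5 mM tranylcypromine positive control for full effect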
Screen size: about 96,000 compounds; about 20,000 (21%) were called active.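 The calls were made as follows: active = CYP2C19 inhibition above a set limit at 5 µM in the primary screen (cut at about 50% in these data); inactive = the rest.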 These entries were drawn from the full list.
Labels: active, inactive

- compound: "Cc1nc(NC(=O)CCC(=O)O)sc1C(=O)N(C)C"
  assigned-class: "inactive"
- compound: "O=C1c2ccncc2C(=O)N1C1CCCCC1"
  assigned-class: "inactive"
- compound: "COC(=O)CCSc1cc([N+](=O)[O-])cc2c1c(C1OCCS1)nn2-c1ccccc1 (centres undefined)"
  assigned-class: "inactive"
- compound: "CSc1ccc(C#N)cc1NC(=O)c1ccc(Cl)cc1"
  assigned-class: "inactive"
- compound: "CCOC(=O)c1[nH]c2ccccc2c1N=C(C)N(CC)CC"
  assigned-class: "inactive"
- compound: "COCCOC(=O)C1=C(C)NC(=O)NC1c1ccc(Cl)cc1 (centres undefined)"
  assigned-class: "active"
- compound: "CCOC(=O)C1CCN(c2ncnc3c2oc2ccc(Br)cc23)CC1"
  assigned-class: "inactive"
- compound: "COc1ccc(C2CC(c3ccccc3)Nc3ncnn32)cc1 (centres undefined)"
  assigned-class: "inactive"
- compound: "CCCCOC(=O)Cn1c(=O)n(CC(=O)OCCCC)c2cc(C)ccc21"
  assigned-class: "active"
- compound: "COC(=O)C(C)n1cnc2c(nnn2-c2cccc(Cl)c2)c1=O (centres undefined)"
  assigned-class: "inactive"
- compound: "Cc1cc(C(=O)CC#N)c(C)n1CC(F)(F)F"
  assigned-class: "inactive"
- compound: "O=C1C(Cl)=C(N2CCOCC2)C(=O)N1c1ccccc1"
  assigned-class: "active"
- compound: "CCN(CC)P(=O)(C(NC(=O)OC)C(F)(F)C(F)(F)C(F)(F)C(F)F)N(CC)CC (centres undefined)"
  assigned-class: "inactive"
- compound: "CCN(CC)C(=O)CSc1nnc(C2CCCCC2)o1"
  assigned-class: "inactive"
- compound: "COC(=O)c1ccc(C2NC(=O)NC(C)=C2C(=O)N(C)C)cc1 (centres undefined)"
  assigned-class: "inactive"
- compound: "COc1ccc(C2CC(c3ccc(C)cc3)Nc3nc(N)nn32)cc1 (centres undefined)"
  assigned-class: "inactive"
- compound: "CC(C)(CNC(=O)c1cc(=O)[nH]c2ccccc12)N1CCOCC1"
  assigned-class: "inactive"
- compound: "C=CCNC(=O)CCCC(=O)NCC=C"
  assigned-class: "inactive"
- compound: "COc1ccc(-c2nc(CS(=O)CC(=O)NCc3cccnc3)c(C)o2)cc1OC (centres undefined)"
  assigned-class: "inactive"
- compound: "N#CCSc1nc2c(c(=O)n1Cc1ccccc1)C1(CCCC1)Cc1ccccc1-2"
  assigned-class: "inactive"
- compound: "CS(=O)(=O)N1CCCC(C(=O)N2CCOCC2)C1 (centres undefined)"
  assigned-class: "inactive"
- compound: "Cc1ccc(C2CC(c3cccc(C)c3)n3nc(N)nc3N2)cc1 (centres undefined)"
  assigned-class: "inactive"
- compound: "Cc1nnc(NCCO)c2ccccc12"
  assigned-class: "inactive"
- compound: "COc1ccc(-c2cc(C(F)(F)F)nc(S(C)(=O)=O)n2)cc1OC"
  assigned-class: "inactive"
